- Test system: A549 NSCLC
- MEASUREMENT_PROTOCOL: NCI tumour cell line growth inhibition, 48 h

- MOLECULE: "CC(=O)OCc1c(O)c2c([nH]c1=O)CCc1ccccc1-2"
  TGI: "> 350 µM"
- MOLECULE: "COc1ccc(CC(=O)NCCc2ccc(OC)c(OC)c2OC)cc1"
  TGI: "> 100 µM"
- MOLECULE: "COc1ccc2cc(-c3cnc4nonc4n3)ccc2c1"
  TGI: "> 100 µM"
- MOLECULE: "CC1SC(c2ccccc2Cl)N(NC(=O)C(O)c2ccccc2)C1=O (centres undefined)"
  TGI: "> 100 µM"
- MOLECULE: "COC(=O)C(Cc1c[nH]c2ccccc12)NC(=O)C(Cc1cnc[nH]1)NC(=O)C1CCC(=O)N1C(=O)OCc1ccccc1 (centres undefined)"
  TGI: "> 100 µM"
- MOLECULE: "CC1=C(C#N)C23C(=O)N(c4ccccc4)C(=O)C2=C(O)C=CC3(O)N1Cc1ccc(Cl)cc1Cl (centres undefined)"
  TGI: "28.5 µM"
- MOLECULE: "Cc1ccc(S(=O)(=O)n2cc(C=O)c(-c3cn(S(=O)(=O)c4ccc(C)cc4)cc3-c3cn(S(=O)(=O)c4ccc(C)cc4)cc3C=O)c2)cc1"
  TGI: "> 100 µM"
- MOLECULE: "COc1cnc2c(c1)C(=O)c1c-2n(CCCN2CCCC2)c(=O)c2cc([N+](=O)[O-])ccc12"
  TGI: "1.15 µM"
- MOLECULE: "O=P1(c2ccccc2)C(c2ccccc2)CCC1c1ccccc1 (centres undefined)"
  TGI: "> 100 µM"

###

The entries below are paired with their reported GI50.
- Tested on: 786-0 renal
- MEASUREMENT_PROTOCOL: NCI tumour cell line growth inhibition, 48 h
OBSERVED_PROPERTY: GI50

- MOLECULE: "CCN(CC)CCN(CC)CC.CCN(CC)CCN(CC)CC.[Cu+2].[Cu+2].[O-][Cl+3]([O-])([O-])[O-].[OH3+].[OH3+]"
  TARGET_OF_ASSAY: "786-0 renal"
  OBSERVED_PROPERTY: "GI50"
  MEASURED_VALUE: "46 µM"
- MOLECULE: "CCC1=C(c2ccc(OC)cc2)C(C)(C)Oc2c1ccc(O)c2CN1CCCC1"
  TARGET_OF_ASSAY: "786-0 renal"
  OBSERVED_PROPERTY: "GI50"
  MEASURED_VALUE: "4.02 µM"
- MOLECULE: "COc1ccc2c(c1)CCC1C2CC[C@@]2(C)C1CC[C@@H]2NC(=O)Cc1ccc(O)c(O)c1 (some centres undefined)"
  TARGET_OF_ASSAY: "786-0 renal"
  OBSERVED_PROPERTY: "GI50"
  MEASURED_VALUE: "5 µM"
- MOLECULE: "CCN1CCN(CCNc2nccc(-c3c(-c4ccc(F)c(O)c4)nc4occn34)n2)S1(=O)=O"
  TARGET_OF_ASSAY: "786-0 renal"
  OBSERVED_PROPERTY: "GI50"
  MEASURED_VALUE: "9.44 µM"

###

- Test system: SNB-75 CNS
- MEASUREMENT_PROTOCOL: NCI tumour cell line growth inhibition, 48 h

- COMPOUND: "CC(C)(C)OC(=O)C1C(=O)NC(=O)CC1CC(OCc1ccccc1)C(OCc1ccccc1)C(COCc1ccccc1)OCc1ccccc1 (centres undefined)"
  TGI: "> 100 µM"
- COMPOUND: "Cc1cc(N(CCC#N)CCC#N)ccc1/C(N=Nc1ccc([N+](=O)[O-])cc1)=N\\NC(=O)c1cc(Cl)ccc1O"
  TGI: "> 100 µM"
- COMPOUND: "CC(C)(C)C(=O)N1C(C(=O)O)Cc2ccccc2[C@@H]1Cc1ccccc1 (some centres undefined)"
  TGI: "> 100 µM"
- COMPOUND: "C=CCC1(C(=O)OC)CCC/C(=N\\O)C1 (centres undefined)"
  TGI: "> 10 µM"
- COMPOUND: "COc1cc(-c2nn(-c3cccc(NC(=O)Nc4ccc(Cl)c(C(F)(F)F)c4)c3)cc2-c2ccncc2)ccc1Cl"
  TGI: "10.3 µM"
- COMPOUND: "COc1ccc(-c2ncnc3c2ncn3CC#CCCl)cc1"
  TGI: "4.84 µM"
- COMPOUND: "O=C(C[n+]1ccccc1)N/N=C(/CCC(=O)N(Cc1ccccc1)Cc1ccccc1)CC(=O)c1ccccc1"
  TGI: "> 100 µM"
- COMPOUND: "CC(=O)O.CN1[CH-]N(Cc2ccc(C#N)cc2)c2ccccc21.[Ag+]"
  TGI: "68.9 µM"
- COMPOUND: "Cc1ccc2c(c1)nc1n2C(c2c(F)cccc2F)SC1 (centres undefined)"
  TGI: "> 100 µM"
